ASSAY PROTOCOL: yeast display, Sf9 membrane polyspecificity reagent, FACS + sequencing; frameworks hold sequencing errors

QUERY SEQUENCE	polyreactivity (PSR sort gate)
QVQLVESGGGLVQAGGSLRLSCAASGFIFRWYAMGWYRQAPGKERELVAAITSGGSTYYADSVKGRFTISRDNAKNTVYLQMNSLKPEDTAVYYCNTYPGSRHWWYDYWGQGTQVTVSS	high polyreactivity
QVQLVESGGRLVQAGGSLRLSCAASGRTFTYYAMGWYRQATGKERELVARITTVGSSTYYADSVKGRFTISRDNAKNTVYLQMNSLKPEETAVYYCNADHLWYSLFDYWGQGTQVTVSS	high polyreactivity

Sourced from the nanobody polyreactivity screen of Harvey et al. (2022)
